target: Fyn SH2 domain, monomeric, cleaved from GST (human, UniProt P06241 149-246); assay: fluorescence polarisation
Sequence (P06241 149-246): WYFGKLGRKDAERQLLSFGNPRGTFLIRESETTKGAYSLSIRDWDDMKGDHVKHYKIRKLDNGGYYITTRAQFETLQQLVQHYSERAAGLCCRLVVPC
pKd: −log10 of the molar value. Non-standard residues stand in square brackets, D forms with d. No end group written: not given here. Flu = 5-carboxyfluorescein, coupled after removal of the final Fmoc group; pY = N[C@@H](Cc1ccc(OP(=O)(O)O)cc1)C(=O)O
measured metric: pKd

INPUT: Using the record for Flu-EDDT[pY]DGYE [fluoresceinated cortactin phospho-Y482 peptide] , report its pKd.
OUTPUT: < 5.30
